Measured pKd accompanies every entry in the list below.
# testedTarget: GST-fused human V158 FcγRIIIa (extracellular region) (human) (UniProt P08637)
# Sequence (P08637 17-208 F176V): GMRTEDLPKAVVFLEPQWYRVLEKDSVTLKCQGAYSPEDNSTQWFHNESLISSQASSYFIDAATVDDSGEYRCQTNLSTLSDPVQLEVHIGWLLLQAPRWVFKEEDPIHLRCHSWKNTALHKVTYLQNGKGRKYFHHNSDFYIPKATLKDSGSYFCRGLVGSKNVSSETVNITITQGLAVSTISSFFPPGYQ
# assayInfo: SPR, GST-FcγRIIIa V158 on chip
Kindly note that pKd refers to -log10 of the concentration in mol/L and answer with the value alone.

# count of solved cases: 5
binder	pKd
AC10 H2L2 (H2 AC10 VH, L2 AC10 VL) (antibody, from a related filing, IgG1, V domains shown) VH: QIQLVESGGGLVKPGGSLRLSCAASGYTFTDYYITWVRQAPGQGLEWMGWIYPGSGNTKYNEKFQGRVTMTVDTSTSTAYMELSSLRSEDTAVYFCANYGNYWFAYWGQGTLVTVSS VL: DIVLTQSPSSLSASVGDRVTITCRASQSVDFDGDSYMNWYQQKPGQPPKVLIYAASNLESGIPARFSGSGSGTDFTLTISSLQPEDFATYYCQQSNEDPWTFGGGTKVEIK	8.40
AC10 H3L3 (H3 AC10 VH, L3 AC10 VL) (antibody, from a related filing, IgG1, V domains shown) VH: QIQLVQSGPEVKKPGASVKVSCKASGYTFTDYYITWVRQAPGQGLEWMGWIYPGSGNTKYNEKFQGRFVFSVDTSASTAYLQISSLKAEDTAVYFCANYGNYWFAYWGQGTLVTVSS VL: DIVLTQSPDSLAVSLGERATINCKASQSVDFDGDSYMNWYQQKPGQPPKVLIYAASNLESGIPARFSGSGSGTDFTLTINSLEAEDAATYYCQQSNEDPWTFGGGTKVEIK	8.21
AC10 H3L1 (H3 AC10 VH, L1 AC10 VL) (antibody, from a related filing, IgG1, V domains shown) VH: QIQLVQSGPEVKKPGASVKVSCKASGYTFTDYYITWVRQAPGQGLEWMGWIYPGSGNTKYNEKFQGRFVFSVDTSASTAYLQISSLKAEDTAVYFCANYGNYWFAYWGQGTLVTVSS VL: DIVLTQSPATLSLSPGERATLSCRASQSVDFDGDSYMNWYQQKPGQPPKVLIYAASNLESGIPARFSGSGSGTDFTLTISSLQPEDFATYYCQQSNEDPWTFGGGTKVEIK	7.76
AC10 H1L1 (H1 AC10 VH, L1 AC10 VL) (antibody, from a related filing, IgG1, V domains shown) VH: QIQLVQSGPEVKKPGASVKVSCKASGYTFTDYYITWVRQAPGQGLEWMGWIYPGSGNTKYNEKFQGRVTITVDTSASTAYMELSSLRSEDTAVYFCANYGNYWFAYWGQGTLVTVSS VL: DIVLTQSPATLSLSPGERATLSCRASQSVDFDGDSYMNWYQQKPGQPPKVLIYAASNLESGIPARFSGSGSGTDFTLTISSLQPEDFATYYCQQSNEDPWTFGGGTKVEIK	7.95
AC10 H1L2 (H1 AC10 VH, L2 AC10 VL) (antibody, from a related filing, IgG1, V domains shown) VH: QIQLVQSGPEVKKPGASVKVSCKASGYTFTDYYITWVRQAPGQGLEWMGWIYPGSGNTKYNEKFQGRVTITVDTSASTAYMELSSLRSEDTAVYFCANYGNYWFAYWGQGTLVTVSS VL: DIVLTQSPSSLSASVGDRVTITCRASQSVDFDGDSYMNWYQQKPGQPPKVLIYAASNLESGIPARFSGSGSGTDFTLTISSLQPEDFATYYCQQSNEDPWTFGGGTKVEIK	7.78

Q: Report pKd for AC10 H2L1 (H2 AC10 VH, L1 AC10 VL) (antibody, from a related filing, IgG1, V domains shown) VH: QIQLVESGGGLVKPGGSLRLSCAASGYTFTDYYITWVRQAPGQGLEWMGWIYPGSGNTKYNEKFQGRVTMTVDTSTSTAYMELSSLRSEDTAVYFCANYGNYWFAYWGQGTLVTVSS VL: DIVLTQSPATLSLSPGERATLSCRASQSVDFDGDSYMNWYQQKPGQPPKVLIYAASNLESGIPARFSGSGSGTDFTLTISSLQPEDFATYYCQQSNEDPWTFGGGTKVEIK
A: 7.83
